biological target: human CB1 receptor (Homo sapiens, UniProt P21554); construct: expressed in transfected cells; host or cells: human embryonic kidney (HEK) cells, Semliki Forest Virus system, membrane preparations; assay: CB1 receptor affinity ([3H]-CP-55,940 displacement, HEK cell membranes); type: binding; details: displacement of radioligand [3H]-CP-55,940
Sequence (P21554 whole entry): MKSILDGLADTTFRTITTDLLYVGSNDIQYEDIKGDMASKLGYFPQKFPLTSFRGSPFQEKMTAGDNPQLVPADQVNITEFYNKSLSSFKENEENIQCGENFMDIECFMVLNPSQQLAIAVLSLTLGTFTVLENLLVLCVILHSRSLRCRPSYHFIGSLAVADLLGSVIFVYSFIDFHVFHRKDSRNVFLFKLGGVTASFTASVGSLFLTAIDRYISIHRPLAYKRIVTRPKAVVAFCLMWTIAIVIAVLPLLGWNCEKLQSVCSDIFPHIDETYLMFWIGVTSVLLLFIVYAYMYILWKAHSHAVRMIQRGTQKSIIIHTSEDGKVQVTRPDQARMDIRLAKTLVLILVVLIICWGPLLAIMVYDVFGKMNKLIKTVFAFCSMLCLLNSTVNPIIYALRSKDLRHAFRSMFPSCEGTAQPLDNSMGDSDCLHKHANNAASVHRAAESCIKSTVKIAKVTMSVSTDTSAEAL
endpoint-label: inhibition at 10 µM
A complete answer gives the number followed by the unit.

>  <structure>
Cn1nccc1C(=O)Nc1cnc(OCC(F)(F)F)c(-c2ccc(Cl)cc2)c1

>  <endpoint-label>
inhibition at 10 µM

>  <endpoint-value>
34%

$$$$
>  <structure>
O=C(Nc1cnc(OCC(F)(F)F)c(-c2ccc(Cl)cc2F)c1)c1cncnc1

>  <endpoint-label>
inhibition at 10 µM

>  <endpoint-value>
35%

$$$$

Notebook: pull reported inhibition at 10 µM for human CB1 receptor (Homo sapiens, UniProt P21554), entry "O=C(Nc1cnc(OCC(F)(F)F)c(-c2ccc(Cl)cc2)c1)c1ccccc1O"
38%
